Assay: Phase I PK of fenebrutinib
Assay type: in vivo, human
Settings: human, plasma, oral
Value Kind: Vd/F

Quick note, Vd/F for "C[C@H]1CN(C2COC2)CCN1c1ccc(Nc2cc(-c3ccnc(N4CCn5c(cc6c5CC(C)(C)C6)C4=O)c3CO)cn(C)c2=O)nc1" landed at ~13.4 L/kg

* * *

Assay: Fenebrutinib PBPK model parameters
Design: species or system human
Conditions: human
Value Kind: clearance (mL/min)
Answers are plain numbers, in mL/min.

Quick note, clearance for "C[C@H]1CN(C2COC2)CCN1c1ccc(Nc2cc(-c3ccnc(N4CCn5c(cc6c5CC(C)(C)C6)C4=O)c3CO)cn(C)c2=O)nc1" landed at 18.3

* * *

Assay: Physicochemical properties of fenebrutinib
Conditions: octanol/water
Value Kind: logP
One number for each entry.

Quick note, logP for "C[C@H]1CN(C2COC2)CCN1c1ccc(Nc2cc(-c3ccnc(N4CCn5c(cc6c5CC(C)(C)C6)C4=O)c3CO)cn(C)c2=O)nc1" landed at 3.3
